Sourced from PubChem BioAssay AID250

# Test system: BDF1 mice, L1210 leukemia sc, survival T/C
# assay procedure: NCI In Vivo Anticancer Drug Screen. Data for tumor model L1210 Leukemia (subcutaneous) in B6D2F1 (BDF1) mice
# conditions: endpoint: median survival time; dose: 23.0 mg/kg/injection; schedule: Q01DX Z (sc); vehicle: methylcellulose (MC); higher = longer survival
Inconclusive results and toxic doses are left out.
value type: T/C

Tested on BDF1 mice, L1210 leukemia sc, survival T/C: COc1cc([C@@H]2c3cc4c(cc3[C@H](O)[C@H]3COC(=O)[C@H]23)OCO4)cc(OC)c1OC . Observed T/C: 109 % of control

Tested on BDF1 mice, L1210 leukemia sc, survival T/C: C1OC1CN1CCC(C2CCN(CC3CO3)CC2)CC1 (stereo not drawn) . Observed T/C: 104 % of control

Tested on BDF1 mice, L1210 leukemia sc, survival T/C: C[n+]1c2ccccc2nc2c(N)cc(N)cc21 . Observed T/C: 105 % of control

Tested on BDF1 mice, L1210 leukemia sc, survival T/C: ClCCn1c2ccccc2c2ccccc21 . Observed T/C: 100 % of control

Tested on BDF1 mice, L1210 leukemia sc, survival T/C: S=c1nc[nH]c2nc[nH]c12 . Observed T/C: 109 % of control

Tested on BDF1 mice, L1210 leukemia sc, survival T/C: CC(C)Sc1nc(N)nc2nc[nH]c12 . Observed T/C: 100 % of control

Tested on BDF1 mice, L1210 leukemia sc, survival T/C: Cn1c(O)c(N=NC(N)=S)c2ccccc21 . Observed T/C: 100 % of control

Tested on BDF1 mice, L1210 leukemia sc, survival T/C: OCC1OC(n2cnc3cc(Cl)c(Cl)cc32)C(O)C1O (stereo not drawn) . Observed T/C: 95 % of control

Tested on BDF1 mice, L1210 leukemia sc, survival T/C: NC(=O)c1ccc([N+](=O)[O-])cc1 . Observed T/C: 90 % of control

Tested on BDF1 mice, L1210 leukemia sc, survival T/C: Nc1nc(=S)c2ncn(C3OC(COC(=O)c4ccccc4)C(OC(=O)c4ccccc4)C3OC(=O)c3ccccc3)c2[nH]1 (stereo not drawn) . Observed T/C: 100 % of control

Tested on BDF1 mice, L1210 leukemia sc, survival T/C: CS(=O)(=O)OCC(O)C(O)C(O)C(O)COS(C)(=O)=O (stereo not drawn) . Observed T/C: 96 % of control

Tested on BDF1 mice, L1210 leukemia sc, survival T/C: CS(=O)(=O)OCCCCOS(C)(=O)=O . Observed T/C: 103 % of control

Tested on BDF1 mice, L1210 leukemia sc, survival T/C: Clc1ncnc2c1ncn2C1CCCO1 (stereo not drawn) . Observed T/C: 100 % of control
